B1: library; a variant is named by its letters at N, in order (parent)
chain: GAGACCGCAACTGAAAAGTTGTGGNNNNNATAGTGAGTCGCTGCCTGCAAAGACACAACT

Variants of: B1
Assay protocol: ligation selection enrichment (abundance after / before one-round selection) (fold); higher = more template-directed ligation activity
Assay conditions: with T7Psub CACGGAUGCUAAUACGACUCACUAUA; MgCl2 25 mM; 42 °C; 4 h; pH 8.5
Label rule, in plain words: ligation selection enrichment of 0.2 and up is true, under 0.2 is false.

In [3]: df
Out[3]:
   variant_identifier  class_name
0               TTTCC        true
1               TGCGT       false
2               AGGTA        true
3               TGCTC       false
4               GGATG        true
5               TTCCA       false

In plain terms: is recorded ligation selection enrichment at least 0.2 for CCGGC ? false

In plain terms: is recorded ligation selection enrichment at least 0.2 for GATTT ? true

In plain terms: is recorded ligation selection enrichment at least 0.2 for ATACG ? true

In plain terms: is recorded ligation selection enrichment at least 0.2 for AAAAA ? false

In plain terms: is recorded ligation selection enrichment at least 0.2 for AAGAG ? true

In plain terms: is recorded ligation selection enrichment at least 0.2 for TGTCC ? true

In plain terms: is recorded ligation selection enrichment at least 0.2 for ACCAA ? false

In plain terms: is recorded ligation selection enrichment at least 0.2 for AAAGT ? false

In plain terms: is recorded ligation selection enrichment at least 0.2 for AAATG ? true

In plain terms: is recorded ligation selection enrichment at least 0.2 for GAAAC ? false
